target: Leukotriene B4 receptor 1 (Homo sapiens); experiment: BLT-1 cAMP Assay: The ability of compounds to antagonize the human BLT1 receptor was determined using a kit to measure changes in intracellular cyclic AMP levels (cAMP dynamic assay kit, Cisbio Cat. No. 62AM4PEC). HEK293 cells recombinantly expressing human BLT1 receptor, previously frozen in Recovery Medium (Life Technologies, Cat. No. 12648-010) were thawed and diluted into assay medium (HBSS (Hyclone SH 30268.01), 20 mM HEPES (Gibco 15630-106), 800 μM IBMX (Sigma I5879), 0.1% DTPA BSA (Perkin Elmer CR84-100)). The cell suspension was centrifuged at 200×g for 10 min and then resuspended in fresh assay medium to a density of 2.5×10^5 cells/mL. A Labcyte Echo 550 acoustic dispenser was used to transfer 25 nL of test compound dissolved in DMSO into the wells of a dry 384-well plate (Greiner 784075). All subsequent liquid additions were performed using a BIORAPTR (FRD; Beckman Coulter). Next, 5 μL of cell suspension was added and incubated for 20 min. at 37° C. and 5% CO2 in a humidified plastic tray. To test for agonist activity 51 μL of assay buffer containing forskolin (Sigma F-6886. 4 μM for BLT1) was added and incubated for 30 minutes at 37° C. and 5% CO2 in a humidified plastic tray. To test for antagonist activity 5 μL of assay buffer containing forskolin (Sigma F-6886. 4 μM for BLT1) and either LTB4 (Sigma Aldrich L0517; 2 nM BLT1) was added and incubated for 30 minutes at 37° C. and 5% CO2 in a humidified plastic tray.The levels of cAMP were detected using the CisBio kit following the manufacturer's instructions: cAMP-d2 vial was reconstituted with distilled water and then diluted accordingly with conjugate & lysis buffer. 5 μL of cAMP-d2 working solution was added to all of the wells of the assay plate. cAMP-Cryptate vial was reconstituted with distilled water and then diluted accordingly with conjugate & lysis buffer. 5 μL of cAMP-Cryptate working solution were added to the assay plate. The assay plate was shaken for 3 minutes and incubated at room temperature for 45 minutes, then read on Perkin Elmer Envision. cAMP standard curve and fit data were plotted using a 4 parameter dose response curve fitting algorithm to fit curve. A 4-parameter curve fit (Max, min, log EC50 and slope) was used to transform fluorescent 665 nm/615 nm ratio signal to cAMP concentration. After normalization to treated and untreated controls, the percent effect of signal at each compound concentration was calculated. The plot of percent effect versus the log of compound concentration was fit with a 4-parameter concentration response equation to calculate EC50 values. Compound concentrations tested were 10 000, 3 333, 1 111, 370.4, 123.4, 41.2, 13.7, 4.6, 1.5 and 0.5 nM with 0.25% residual DMSO.
Sequence (Q15722 whole entry): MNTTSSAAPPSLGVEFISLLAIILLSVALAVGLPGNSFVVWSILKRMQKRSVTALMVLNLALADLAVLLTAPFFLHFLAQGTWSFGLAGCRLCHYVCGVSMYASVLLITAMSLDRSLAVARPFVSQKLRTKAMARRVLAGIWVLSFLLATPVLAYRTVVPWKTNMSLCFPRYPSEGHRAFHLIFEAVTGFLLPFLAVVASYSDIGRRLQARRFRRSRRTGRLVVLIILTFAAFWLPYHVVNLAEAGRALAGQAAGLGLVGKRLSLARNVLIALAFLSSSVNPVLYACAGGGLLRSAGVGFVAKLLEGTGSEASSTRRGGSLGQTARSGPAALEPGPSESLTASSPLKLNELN
pEC50: −log10 of the molar value.
readout_kind: pEC50

CC1(S(=O)(=O)NC(=O)c2ccccc2-c2ccc3c(c2)OC[C@@H](Cc2coc(-c4ccccc4)n2)[C@@H]3O)CC1 (single isomer, unassigned) :: 7.22
O=C(NS(=O)(=O)C(F)(F)F)c1ccc(F)cc1-c1ccc2c(c1)OC[C@H](Cc1ccc(-c3ccccc3)cc1)[C@H]2O (single isomer, unassigned) :: 7.46
CCn1nccc1C[C@@H]1COc2cc(-c3ccccc3C(=O)NS(=O)(=O)C3(C)CC3)ccc2[C@H]1O (racemic) :: 6.27

Data credit: ChEMBL document CHEMBL5727202
